# MEASURED_ON: mouse melanocortin 3 receptor (mouse, UniProt P33033 1-323)
# Sequence (P33033 whole entry): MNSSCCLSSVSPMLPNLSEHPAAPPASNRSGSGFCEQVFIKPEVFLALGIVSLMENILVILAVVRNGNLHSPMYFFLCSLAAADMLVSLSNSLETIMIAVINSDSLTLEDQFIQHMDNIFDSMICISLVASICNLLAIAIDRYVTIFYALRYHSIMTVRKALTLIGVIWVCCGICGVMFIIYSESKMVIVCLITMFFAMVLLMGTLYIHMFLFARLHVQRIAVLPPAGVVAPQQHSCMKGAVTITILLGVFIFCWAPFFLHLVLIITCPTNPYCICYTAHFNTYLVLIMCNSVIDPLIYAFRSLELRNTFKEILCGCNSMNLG
# EXPERIMENT_DESCRIPTION: cell-based or functional assay
Square brackets hold non-standard residues; d marks the D form. Dap = NC[C@H](N)C(=O)O
Mark YES for reported pA2 (Schild analysis, agonist NDP-MSH, cAMP) of 6 or greater; mark NO for anything smaller.

binder="cyclo(PRYF[Dap]AF[dP]) (Phe112Tyr SNP in the Dap scaffold; also called c[Pro-Arg-Tyr-Phe-Dap-Ala-Phe-DPro]) [ZMK 2-112]" answer_label=YES
binder="cyclo(PCFF[Dap]AF[dP]) (Arg111Cys SNP in the Dap scaffold; also called c[Pro-Cys-Phe-Phe-Dap-Ala-Phe-DPro]) [ZMK 3-20]" answer_label=NO
binder="cyclo(PHFFNAF[dP]) (Arg111His SNP in the Asn scaffold; also called c[Pro-His-Phe-Phe-Asn-Ala-Phe-DPro]) [ZMK 2-96]" answer_label=NO
binder="cyclo(PHFF[Dap]AF[dP]) (Arg111His SNP in the Dap scaffold; also called c[Pro-His-Phe-Phe-Dap-Ala-Phe-DPro]) [ZMK 2-99]" answer_label=NO
binder="cyclo(PRYFNAF[dP]) (Phe112Tyr SNP in the Asn scaffold; also called c[Pro-Arg-Tyr-Phe-Asn-Ala-Phe-DPro]) [ZMK 2-110]" answer_label=NO
